Assay: solubility of flavonoids in naturally occurring deep eutectic solvents
Assay type: physicochemical
Conditions: water, Solubility in Water
Protocol: First the solubility of natural products, which are not soluble in water, was evaluated in a few selected natural deep eutectic solvents. Several flavonoids were chosen as the natural water-insoluble products, because they are one of the most abundant water-insoluble plant secondary metabolites. Up to now more than 500 flavonoids have been known. Most of these flavonoids occur in their glycosides forms (bounded to a sugar molecule) in plants. […]
Parameter Measured: solubility (µg/mL)
Numbers only, in µg/mL.

[in] Reported solubility, molecule O=c1c(O)c(-c2ccc(O)c(O)c2)oc2cc(O)cc(O)c12 : ____
[out] 300

###

assay: solubility of flavonoids in naturally occurring deep eutectic solvents; type: physicochemical; details: organic solvent or mixture, deep eutectic solvent Fructose + Choline chloride; read-out: Solubility in Fructose + Choline chloride
Parameter Measured: solubility (mg/mL)
Numbers only, in mg/mL.

[in] Reported solubility, molecule C[C@@H]1O[C@@H](Oc2c(-c3ccc(O)c(O)c3)oc3cc(O)cc(O)c3c2=O)[C@H](O)[C@H](O)[C@H]1O [Quercitrin, quercetin-3-O-rhamnoside] : ____
[out] 11.2
